Assay: Cytotoxicity in normal cell line (MTT)
Assay type: cell-based, human
Conditions: human, Hs27 fibroblast cells
Where a SMILES comes first, the peptide text is derived from it.
reported endpoint: viability at 24 h, 16 µM (%)

CC[C@H](C)[C@H](NC(=O)[C@H](CCCNC(=N)N)NC(=O)[C@H](CCC(N)=O)NC(=O)[C@@H](NC(=O)[C@@H](NC(=O)[C@H](CCCNC(=N)N)NC(=O)[C@H](CCCCN)NC(=O)[C@H](Cc1ccccc1)NC(=O)[C@H](CCC(=O)O)NC(=O)[C@@H](N)CCCCN)[C@@H](C)CC)C(C)C)C(=O)N[C@@H](CCCCN)C(=O)N[C@@H](CC(=O)O)C(=O)N[C@@H](Cc1ccccc1)C(=O)N[C@@H](CC(C)C)C(=O)N[C@@H](CCCNC(=N)N)C(=O)N[C@@H](CC(N)=O)C(N)=O [LL37-1, KEFKRIVQRIKDFLRN-NH2] (H-KEFKRIVQRIKDFLRN-NH2) = 92

---

Experiment: Cytotoxicity in normal cell line (MTT)
Type: cell-based, human
Settings: human, HaCaT keratinocyte cells; HaCaT; peptide 8 μM; 24 hours; MTT; read-out: Cell survival ability
Where a SMILES comes first, the peptide text is derived from it.
reported endpoint: viability at 24 h, 8 µM (%)

CC[C@H](C)[C@H](NC(=O)[C@H](CCCNC(=N)N)NC(=O)[C@H](CCC(N)=O)NC(=O)[C@@H](NC(=O)[C@@H](NC(=O)[C@H](CCCNC(=N)N)NC(=O)[C@H](CCCCN)NC(=O)[C@H](Cc1ccccc1)NC(=O)[C@H](CCCCN)NC(=O)[C@@H](N)CCCCN)[C@@H](C)CC)C(C)C)C(=O)N[C@@H](CCCCN)C(=O)N[C@@H](CC(=O)O)C(=O)N[C@@H](Cc1ccccc1)C(=O)N[C@@H](CC(C)C)C(=O)N[C@@H](CCCNC(=N)N)C(=O)N[C@@H](CC(N)=O)C(N)=O [LL37-2, KKFKRIVQRIKDFLRN-NH2] (H-KKFKRIVQRIKDFLRN-NH2) = 101

---

Assay: Cytotoxicity in normal cell line (MTT)
Format: cell-based, human
Settings: human, HaCaT keratinocyte cells
Where a SMILES comes first, the peptide text is derived from it.
reported endpoint: viability at 24 h, 1 µM (%)

CC[C@H](C)[C@H](NC(=O)[C@H](CCCNC(=N)N)NC(=O)[C@H](CCC(N)=O)NC(=O)[C@@H](NC(=O)[C@@H](NC(=O)[C@H](CCCNC(=N)N)NC(=O)[C@H](CCCCN)NC(=O)[C@H](Cc1ccccc1)NC(=O)[C@H](CCC(=O)O)NC(=O)[C@@H](N)CCCCN)[C@@H](C)CC)C(C)C)C(=O)N[C@@H](CCCCN)C(=O)N[C@@H](CC(=O)O)C(=O)N[C@@H](Cc1ccccc1)C(=O)N[C@@H](CC(C)C)C(=O)N[C@@H](CCCNC(=N)N)C(=O)N[C@@H](CC(N)=O)C(N)=O [LL37-1, KEFKRIVQRIKDFLRN-NH2] (H-KEFKRIVQRIKDFLRN-NH2) = 103

---

Test: Cytotoxicity in normal cell line (MTT)
Type: cell-based, human
Conditions: human, Hs27 fibroblast cells
Where a SMILES comes first, the peptide text is derived from it.
reported endpoint: viability at 24 h, 1 µM (%)

CC[C@H](C)[C@H](NC(=O)[C@H](CCCNC(=N)N)NC(=O)[C@H](CCC(N)=O)NC(=O)[C@@H](NC(=O)[C@@H](NC(=O)[C@H](CCCNC(=N)N)NC(=O)[C@H](CCCCN)NC(=O)[C@H](Cc1ccccc1)NC(=O)[C@H](CCC(=O)O)NC(=O)[C@@H](N)CCCCN)[C@@H](C)CC)C(C)C)C(=O)N[C@@H](CCCCN)C(=O)N[C@@H](CC(=O)O)C(=O)N[C@@H](Cc1ccccc1)C(=O)N[C@@H](CC(C)C)C(=O)N[C@@H](CCCNC(=N)N)C(=O)N[C@@H](CC(N)=O)C(N)=O [LL37-1, KEFKRIVQRIKDFLRN-NH2] (H-KEFKRIVQRIKDFLRN-NH2) = 100

---

Assay: Cytotoxicity in normal cell line (MTT)
Assay type: cell-based, human
Details: human, HaCaT keratinocyte cells; HaCaT; peptide 2 μM; 24 hours; MTT; read-out: Cell survival ability
Where a SMILES comes first, the peptide text is derived from it.
reported endpoint: viability at 24 h, 2 µM (%)

CC[C@H](C)[C@H](NC(=O)[C@H](CCCNC(=N)N)NC(=O)[C@H](CCC(N)=O)NC(=O)[C@@H](NC(=O)[C@@H](NC(=O)[C@H](CCCNC(=N)N)NC(=O)[C@H](CCCCN)NC(=O)[C@H](Cc1ccccc1)NC(=O)[C@H](CCCCN)NC(=O)[C@@H](N)CCCCN)[C@@H](C)CC)C(C)C)C(=O)N[C@@H](CCCCN)C(=O)N[C@@H](CC(=O)O)C(=O)N[C@@H](Cc1ccccc1)C(=O)N[C@@H](CC(C)C)C(=O)N[C@@H](CCCNC(=N)N)C(=O)N[C@@H](CC(N)=O)C(N)=O [LL37-2, KKFKRIVQRIKDFLRN-NH2] (H-KKFKRIVQRIKDFLRN-NH2) = 104

---

Test: Cytotoxicity in normal cell line (MTT)
Type: cell-based, human
Settings: human, Hs27 fibroblast cells; Hs27; peptide 2 μM; 24 hours; MTT; read-out: Cell survival ability
Where a SMILES comes first, the peptide text is derived from it.
reported endpoint: viability at 24 h, 2 µM (%)

CC[C@H](C)[C@H](NC(=O)[C@H](CCCNC(=N)N)NC(=O)[C@H](CCC(N)=O)NC(=O)[C@@H](NC(=O)[C@@H](NC(=O)[C@H](CCCNC(=N)N)NC(=O)[C@H](CCCCN)NC(=O)[C@H](Cc1ccccc1)NC(=O)[C@H](CCCCN)NC(=O)[C@@H](N)CCCCN)[C@@H](C)CC)C(C)C)C(=O)N[C@@H](CCCCN)C(=O)N[C@@H](CC(=O)O)C(=O)N[C@@H](Cc1ccccc1)C(=O)N[C@@H](CC(C)C)C(=O)N[C@@H](CCCNC(=N)N)C(=O)N[C@@H](CC(N)=O)C(N)=O [LL37-2, KKFKRIVQRIKDFLRN-NH2] (H-KKFKRIVQRIKDFLRN-NH2) = 94

---

Assay: Cytotoxicity in normal cell line (MTT)
Assay type: cell-based, human
Details: human, HaCaT keratinocyte cells
Where a SMILES comes first, the peptide text is derived from it.
reported endpoint: viability at 24 h, 8 µM (%)

CC[C@H](C)[C@H](NC(=O)[C@H](CCCNC(=N)N)NC(=O)[C@H](CCC(N)=O)NC(=O)[C@@H](NC(=O)[C@@H](NC(=O)[C@H](CCCNC(=N)N)NC(=O)[C@H](CCCCN)NC(=O)[C@H](Cc1ccccc1)NC(=O)[C@H](CCC(=O)O)NC(=O)[C@@H](N)CCCCN)[C@@H](C)CC)C(C)C)C(=O)N[C@@H](CCCCN)C(=O)N[C@@H](CC(=O)O)C(=O)N[C@@H](Cc1ccccc1)C(=O)N[C@@H](CC(C)C)C(=O)N[C@@H](CCCNC(=N)N)C(=O)N[C@@H](CC(N)=O)C(N)=O [LL37-1, KEFKRIVQRIKDFLRN-NH2] (H-KEFKRIVQRIKDFLRN-NH2) = 103

---

Assay: Cytotoxicity in normal cell line (MTT)
Type: cell-based, human
Conditions: human, HaCaT keratinocyte cells; HaCaT; peptide 0.5 μM; 24 hours; MTT; read-out: Cell survival ability
Where a SMILES comes first, the peptide text is derived from it.
reported endpoint: viability at 24 h, 0.5 µM (%)

CC[C@H](C)[C@H](NC(=O)[C@H](CCCNC(=N)N)NC(=O)[C@H](CCC(N)=O)NC(=O)[C@@H](NC(=O)[C@@H](NC(=O)[C@H](CCCNC(=N)N)NC(=O)[C@H](CCCCN)NC(=O)[C@H](Cc1ccccc1)NC(=O)[C@H](CCCCN)NC(=O)[C@@H](N)CCCCN)[C@@H](C)CC)C(C)C)C(=O)N[C@@H](CCCCN)C(=O)N[C@@H](CC(=O)O)C(=O)N[C@@H](Cc1ccccc1)C(=O)N[C@@H](CC(C)C)C(=O)N[C@@H](CCCNC(=N)N)C(=O)N[C@@H](CC(N)=O)C(N)=O [LL37-2, KKFKRIVQRIKDFLRN-NH2] (H-KKFKRIVQRIKDFLRN-NH2) = 100

---

Test: Cytotoxicity in normal cell line (MTT)
Format: cell-based, human
Settings: human, Hs27 fibroblast cells; Hs27; peptide 1 μM; 24 hours; MTT; read-out: Cell survival ability
Experimental: To determine the cytotoxicity of the peptides produced by the method of Example 1 in normal cell line, cytotoxicity was measured by using normal human keratinocyte cell line (HaCaT) and normal human fibroblast cell line (Hs27). Specifically, normal human keratinocyte (HaCaT) cells and normal human fibroblast (Hs27) cells, which have been cultured in DMEM medium containing 10% FBS (fetal bovine serum), were aliquoted in a microtiter plate to have 1×10^4 cells per well. […]
Where a SMILES comes first, the peptide text is derived from it.
reported endpoint: viability at 24 h, 1 µM (%)

CC[C@H](C)[C@H](NC(=O)[C@H](CCCNC(=N)N)NC(=O)[C@H](CCC(N)=O)NC(=O)[C@@H](NC(=O)[C@@H](NC(=O)[C@H](CCCNC(=N)N)NC(=O)[C@H](CCCCN)NC(=O)[C@H](Cc1ccccc1)NC(=O)[C@H](CCCCN)NC(=O)[C@@H](N)CCCCN)[C@@H](C)CC)C(C)C)C(=O)N[C@@H](CCCCN)C(=O)N[C@@H](CC(=O)O)C(=O)N[C@@H](Cc1ccccc1)C(=O)N[C@@H](CC(C)C)C(=O)N[C@@H](CCCNC(=N)N)C(=O)N[C@@H](CC(N)=O)C(N)=O [LL37-2, KKFKRIVQRIKDFLRN-NH2] (H-KKFKRIVQRIKDFLRN-NH2) = 92
